Provenance of the data: PubChem BioAssay AID1159580

Please go through the items and note down their normalized growth.
- PROTOCOL SUMMARY: chemical genetic growth profiling, strain panel (AID 1159580);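 also: tested at 20 µM; growth read once vehicle control cultures reached saturation at 30 °C; 1 = growth at the plate median or of vehicle wells; lower values mean less growth of the strain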
- EXPERIMENTAL PARAMETERS: S. cerevisiae deletion strains, growth OD, locus YDR334W, strain swr1, active compounds read low
About 2,000 (36%) of roughly 5,500 compounds were called active. About 18% were inconclusive and are not listed. Some of the results follow.
Numbers only.

Report normalized growth for every entry below.
1. CC1OC(=O)C(C(C)C)NC(=O)C(C(C)C)OC(=O)C(C(C)C)NC(=O)C(C)OC(=O)C(C(C)C)NC(=O)C(C(C)C)OC(=O)C(C(C)C)NC(=O)C(C)OC(=O)C(C(C)C)NC(=O)C(C(C)C)OC(=O)C(C(C)C)NC1=O (stereo not given)
2. O=C(CNC(=O)c1ccc(Cl)cc1)NO
3. COc1ccc2c(c1)c(CC(=O)OCC(=O)O)c(C)n2C(=O)c1ccc(Cl)cc1
4. COc1ccc2c(c1)c(CC(=O)O)c(C)n2C(=O)c1ccc(Cl)cc1
5. O=c1ccc2ccc(O)cc2o1

Reply |
1: 0.494; 2: 1.02; 3: 1; 4: 0.981; 5: 0.985

---

- PROTOCOL SUMMARY: chemical genetic growth profiling, strain panel (AID 1159580);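 also: tested at 20 µM; growth read once vehicle control cultures reached saturation at 30 °C; 1 = growth at the plate median or of vehicle wells; lower values mean less growth of the strain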
- EXPERIMENTAL PARAMETERS: S. cerevisiae deletion strains, growth OD, locus YOR083W, strain WHI5, active compounds read low
Among all 5,500 compounds or so, about 2,000 (36%) were called active. Not shown: some 18% with an inconclusive outcome. This is one part of the list.
Please go through the items and note down their normalized growth.

                                   compound           quantity          reported
0  CC(C)(C#N)O[C@@H]1O[C@H](CO)[C@@H](O)[C@H](O)[C@H]1O  normalized growth   1.01 (inactive)
1  CCC(C)C(NC)C(=O)O (configuration not stated)  normalized growth   1.02 (inactive)
2                          Cc1cc(O)cc(=O)o1  normalized growth  0.999 (inactive)
3  COC1=C[C@@H]2[C@@H]3Cc4ccc(OC)c(O)c4[C@]2(CCN3C)CC1=O  normalized growth  0.974 (inactive)
4                     Cc1cc(O)cc(O)c1C(=O)O  normalized growth  0.989 (inactive)

Report normalized growth for every entry below.
1. Cc1cc(O)cc(C)c1Cl
2. Cc1cc(O)ccc1Cl

Reply |
["0.899 (inactive)", "0.936 (inactive)"]

---

- PROTOCOL SUMMARY: chemical genetic growth profiling, strain panel (AID 1159580);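 also: tested at 20 µM; growth read once vehicle control cultures reached saturation at 30 °C; 1 = growth at the plate median or of vehicle wells; lower values mean less growth of the strain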
- EXPERIMENTAL PARAMETERS: S. cerevisiae deletion strains, growth OD, locus YEL061C, strain CIN8, active compounds read low
About 2,000 (36%) of roughly 5,500 compounds were called active. Roughly 18% stayed inconclusive and do not appear here. This is one part of the list.
Rule: normalized growth below 1 gives True. Equal to or above 1 gives False.

                                   compound  assigned_label
0  C[C@@H]1CC[C@H]2[C@@H](C)C(=O)O[C@@H]3O[C@@]4(C)CC[C@@H]1[C@]32OO4            True
1  C/C=C(/C)C(=O)OC1CCC2(C)C3CCC4C5(O)CC(O)C6(O)C(CN7CC(C)CCC7C6(C)O)C5(O)CC42OC13O (centres undefined)            True
2           O=C(Nc1ccc(Br)cc1Cl)C(Cl)(Cl)Cl            True

Could you now look at the following compound, please?
Ask | Regarding O=C(O)/C=C/C(=O)Nc1ccc(-n2nc(C(F)(F)F)cc2C(F)(F)F)cc1 , kindly confirm whether its normalized growth is beneath 1.
Reply | False
